Items are presented alongside their recorded IC50.
target: c-Met kinase (recombinant c-Met) (Homo sapiens); construct: 0.27 nM recombinant c-Met; assay: In vitro kinase assay I (homogeneous time-resolved fluorescence tyrosine kinase assay); assay type: biochemical
Sequence (P08581 25-1390): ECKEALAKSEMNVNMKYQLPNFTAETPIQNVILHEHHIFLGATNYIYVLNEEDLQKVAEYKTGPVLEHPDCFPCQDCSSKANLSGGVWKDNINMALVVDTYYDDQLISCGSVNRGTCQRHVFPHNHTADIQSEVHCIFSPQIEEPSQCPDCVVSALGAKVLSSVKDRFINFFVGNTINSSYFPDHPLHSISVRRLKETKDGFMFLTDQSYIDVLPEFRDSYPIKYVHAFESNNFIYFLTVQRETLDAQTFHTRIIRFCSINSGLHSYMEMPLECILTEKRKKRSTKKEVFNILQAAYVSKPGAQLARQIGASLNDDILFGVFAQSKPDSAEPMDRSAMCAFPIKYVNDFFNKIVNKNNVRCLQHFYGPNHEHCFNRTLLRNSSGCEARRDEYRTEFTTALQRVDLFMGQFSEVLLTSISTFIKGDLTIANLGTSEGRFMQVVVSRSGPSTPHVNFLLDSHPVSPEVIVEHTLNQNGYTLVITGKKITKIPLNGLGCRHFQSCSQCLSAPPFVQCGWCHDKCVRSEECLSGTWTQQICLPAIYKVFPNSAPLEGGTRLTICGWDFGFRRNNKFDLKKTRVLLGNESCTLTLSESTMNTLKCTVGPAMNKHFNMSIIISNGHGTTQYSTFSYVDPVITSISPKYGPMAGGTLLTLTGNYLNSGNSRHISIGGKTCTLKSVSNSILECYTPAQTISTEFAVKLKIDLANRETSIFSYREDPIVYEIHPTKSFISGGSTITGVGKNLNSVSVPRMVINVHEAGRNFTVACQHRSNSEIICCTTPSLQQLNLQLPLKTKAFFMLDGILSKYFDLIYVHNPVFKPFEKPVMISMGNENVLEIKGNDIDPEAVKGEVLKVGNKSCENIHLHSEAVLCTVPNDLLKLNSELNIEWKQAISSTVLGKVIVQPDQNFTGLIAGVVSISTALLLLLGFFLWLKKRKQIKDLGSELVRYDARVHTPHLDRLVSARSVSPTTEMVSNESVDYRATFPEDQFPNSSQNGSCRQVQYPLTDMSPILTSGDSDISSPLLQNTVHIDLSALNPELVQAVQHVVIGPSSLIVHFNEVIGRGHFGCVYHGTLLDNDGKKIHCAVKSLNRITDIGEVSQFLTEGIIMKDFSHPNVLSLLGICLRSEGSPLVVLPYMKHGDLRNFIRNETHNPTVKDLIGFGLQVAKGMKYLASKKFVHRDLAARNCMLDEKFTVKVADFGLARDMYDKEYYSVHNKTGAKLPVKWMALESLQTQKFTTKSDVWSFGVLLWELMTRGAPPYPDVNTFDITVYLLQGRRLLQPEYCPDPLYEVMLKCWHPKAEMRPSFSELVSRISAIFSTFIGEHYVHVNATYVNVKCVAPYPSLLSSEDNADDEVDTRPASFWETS
Measurement name: IC50

INSERT INTO measurements (compound, experimental_system, measured_value) VALUES
  ('CC(c1cccc(-c2nccc(C(F)F)n2)c1)c1nn(-c2cnn(C)c2)ccc1=O (single isomer, unassigned)', 'c-Met kinase (recombinant c-Met) (Homo sapiens)', '< 100 nM'),
  ('Cn1cc(-n2ccc(=O)c(Cc3cccc(-c4ncc(OCC5(F)CCOCC5)cn4)c3)n2)cn1', 'c-Met kinase (recombinant c-Met) (Homo sapiens)', '< 100 nM'),
  ('N#Cc1cccc(-n2ccc(=O)c(Cc3cccc(NC(=O)OCCN4CCCC4=O)c3)n2)c1', 'c-Met kinase (recombinant c-Met) (Homo sapiens)', '< 100 nM'),
  ('Cn1cc(-n2ccc(=O)c(Cc3cccc(-c4ccn(C)n4)c3)n2)cn1', 'c-Met kinase (recombinant c-Met) (Homo sapiens)', '100 to 1000 nM'),
  ('CC(c1cccc(-c2ncc(Br)cn2)c1)c1nn(-c2cnn(C)c2)ccc1=O (single isomer, unassigned) [Example 241]', 'c-Met kinase (recombinant c-Met) (Homo sapiens)', '100 to 1000 nM'),
  ('CCc1nc(-c2cccc(Cc3nn(-c4cnn(C)c4)ccc3=O)c2)no1', 'c-Met kinase (recombinant c-Met) (Homo sapiens)', '< 100 nM'),
  ('CC(C)COC(=O)Nc1cccc(Cc2nn(-c3ccc(F)c(F)c3)ccc2=O)c1', 'c-Met kinase (recombinant c-Met) (Homo sapiens)', '< 100 nM');
